System: 931 cancer cell lines
Assay: Cancer cell line screening
Type: cell-based
Conditions: 72 h, read-out: mean IC50 across cell line panel
pIC50: −log10 of the molar value.
Recorded Metric: pIC50

INSERT INTO measurements (compound, numeric_value) VALUES
  ('Cc1cnc(Nc2ccc(OCCN3CCCC3)cc2)nc1Nc1cccc(S(=O)(=O)NC(C)(C)C)c1 [TG101348]', 5.00);

* * *

System: UKE-1 cells
Assay: Cell viability
Assay type: cell-based, human
Conditions: read-out: Cell growth inhibition IC50, UKE-1; 72 h, Cell titer blue
Recorded Metric: IC50

INSERT INTO measurements (smiles_entry, result) VALUES
  ('Cc1cnc(Nc2ccc(N3CCN(C)CC3)cc2)nc1Nc1cccc(S(=O)(=O)NC(C)(C)C)c1', '320 nM');

* * *

Tested on: HCC-78 cells
Experiment: Cell viability
Format: cell-based, human
Details: read-out: Cell growth inhibition IC50, HCC78; 72 h, Cell titer blue
Recorded Metric: IC50 (nM)

INSERT INTO results (compound, measured_on, recorded_metric, unit_of_measure, numeric_value) VALUES
  ('Cc1cnc(Nc2ccc(N3CCN(C)CC3)cc2)nc1Nc1cccc(S(=O)(=O)NC(C)(C)C)c1 [TG101209]', 'HCC-78 cells', 'IC50', 'nM', 1900);
